System: CEM cells HIV-1 protection, formazan growth assay
Assay: NCI AIDS Antiviral Assay
ENDPOINT NAME: EC50

* Cc1ccc2c(c1N)C(=O)c1ccccc1C2=O | > 200 µM
* Cc1csc2c(=O)n(COCc3ccccc3)c(=O)[nH]c12 | > 200 µM
* O=C(CC(=O)c1ccccc1)C(=O)Nc1ccc(Cl)cc1 | > 12 µM
* CCCCCCCN(O)CC1OC(n2ccc(=O)[nH]c2=O)C(O)C1O (configuration not stated) | > 200 µM
* Cc1cccc2c1Oc1ccccc1C2NC(=O)CCN(C)C (configuration not stated) | > 200 µM
* O=C(c1ccc(Cl)cc1)c1ccc(OCCCOc2ccc(C(=O)c3ccc(Cl)cc3)cc2Cl)c(Cl)c1 | > 4.79 µM
* CCC1(c2ccccc2)C(=O)N=C(c2ccccc2)N1CCc1ccccc1 (configuration not stated) | > 200 µM
* Nc1ncc(/C=N/O)c(NCC2(CO)CC(CCc3ccccc3)C2)n1 (configuration not stated) | > 2 µM
* O=C1C2=C(c3ccccc31)C(c1ccc(Cl)cc1)N1C(=O)CCSC1=N2 (configuration not stated) | > 49 µM
* CC(C)OC(=O)C(NC(=O)C(CC(=O)OCc1ccccc1)NC(=O)OCc1ccccc1)NC(=O)C1C(C)(C)CCC1(C)C (configuration not stated) | > 200 µM
* CCOC(=O)/C=C\n1c(=O)cc(C)c2ccccc21 | > 200 µM
* CCN(CC)C(=S)SCn1nc(Cl)c2ccc([N+](=O)[O-])cc21 | > 69.2 µM
* CC1=CC(=O)NCCN1C | 138 µM
* NNC(=O)CNC(=O)CSc1nnc(COc2ccc(Cl)cc2)n1-c1ccccc1 | > 200 µM
* Nc1nc(N)nc(NCCSSCCNc2nc(N)nc(N)n2)n1 | > 200 µM
* O=C1C2C3C=C4c5ccccc5N(c5ccccc5)C4([C@@H]2C(=O)N1c1ccc(F)cc1)[C@H]1C(=O)N(c2ccc(F)cc2)C(=O)[C@@H]31 (some centres not stated) | > 12 µM
* O=C1C(CN2CCOCC2)CCCC1CN1CCOCC1 (configuration not stated) | > 4270 µM
* CNC(=S)/C(=N\Nc1nc[nH]c1C(N)=O)C(N)=S | > 2 µM
* Nc1nc(N)c(N)c(Nc2ccccc2)n1 | > 200 µM
* O=[N+]([O-])c1ccc2c(Nc3ccccc3-c3ccccc3Nc3c4ccccc4nc4cc([N+](=O)[O-])ccc34)c3ccccc3nc2c1 | > 2.29 µM
* CCOC(=O)c1nc2c(C)nc(N(C)C)nc2n(C)c1=O | > 200 µM
* COC(=O)C(=O)C(C(=O)C1=NS(=O)(=O)c2cc(S(N)(=O)=O)c(Cl)cc2N1)c1nc2ccc(C(=O)c3ccccc3)cc2[nH]c1=O (configuration not stated) | > 195 µM
* CC(C)CC(NC(=O)C(CI)Cc1ccccc1)C(=O)Nc1ccccc1 (configuration not stated) | > 100 µM
* COC(=O)C12C(=CCP1(C)=O)C(c1ccccc1)=NN2c1ccccc1 (configuration not stated) | > 27.5 µM
* O=C1NCN(c2ccccc2)C12CCN(Cc1ccccc1)CC2 | > 200 µM
* O=C(CN1C(=O)CC(c2ccccc2)(c2ccccc2)C1=O)N1CCN(CCO)CC1 | > 200 µM
* CC1=C(C(=O)Nc2cccc3c2C(=O)NC3=O)CC(C(=O)Nc2cccc3c2C(=O)NC3=O)=C(C)N1 | > 200 µM
* COc1cc(-c2cc(-c3ccccc3)nc(-c3c(OC)ccc4c(C)cc(=O)oc34)c2)cc(OC)c1OC | > 200 µM
* C[C@]12CCC(=O)O[C@H]1CCCCO2 | > 200 µM
* NC(=O)/C(=N\NC(=O)C[n+]1ccccc1)C1NC(=O)NC1=O (configuration not stated) | > 148 µM
* COc1ccc(-n2cnc3c(NC(Cc4ccccc4)C(=O)O)ncnc32)cc1 (configuration not stated) | > 200 µM
* O=C(/C=C\c1ccccc1)c1ccc(-c2cccc(-c3ccccc3)c2)cc1 | > 200 µM
* COc1c(Cl)cc(C(=CCCCC(=O)N(C)OC)c2cc(Cl)c(OC)c(C(=O)N(C)OC)c2)cc1C(=O)N(C)OC | > 200 µM
* CCOC(CCCN1CCC2(CC1)C(=O)N(C)CN2c1ccccc1)(OCC)c1ccc(F)cc1 | > 200 µM
* NS(=O)(=O)c1ccc(Nc2c3ccccc3nc3c(C(=O)NCCO)cccc23)cc1 | > 200 µM
* CC1CCCN2C(=O)CN(N3CCOCC3)CC(=O)N12 (configuration not stated) | > 200 µM
* CC1CC(c2ccc([N+](=O)[O-])cc2)=Nc2ccccc2S1=O (configuration not stated) | > 12 µM
* CC1(C)C(O)C[C@]23CCC[C@](C)(C[C@@H](O)C12)C3 (some centres not stated) | > 200 µM
* O=Nc1c(-c2ccccc2)nnc(-c2ccccc2)c1N=O | > 9.33 µM
* C=C(C)c1ccc2c(c1)C(=O)C[C@@H]1[C@](C)(C#N)CCC[C@]21C | > 200 µM
* N#CC(c1ccccc1)N(CCCCCCN(C(=O)c1ccccc1)C(C#N)c1ccccc1)C(=O)c1ccccc1 (configuration not stated) | > 200 µM
* S=c1[nH]nc(-c2ccccc2)n1/N=C\c1ccc(-c2ccc(Cl)cc2)o1 | > 5.25 µM

----------
Consider the following compounds and their measured pIC50 readings.
System: CEM cells HIV-1 protection, formazan growth assay
Experiment: NCI AIDS Antiviral Assay
Settings: measured here: growth of uninfected CEM cells
pIC50: −log10 of the molar value.
ENDPOINT NAME: pIC50

• Cc1ccc(-c2nnc3s/c(=C\c4ccc(N(C)C)cc4)c(=O)n23)cc1 = 4.79
• NCc1ccccc1C1CSCSC1 = 3.54
• COc1cc2c(cc1OC)C1=Cc3cc(OC)c(OC)cc3C(C)N1C=C2 (configuration not stated) = 4.53
• CC(=O)c1sc2[n+](c1C)C(=O)/C(=C\c1ccccc1Cl)S2 = 3.96
• CCOC(=O)/C(O)=C(/C=N/C(=S)Nc1c(CC)cccc1CC)C(=O)OCC = 3.96
• [Ni+2].[O-]/C(=N\N=C\c1ccccn1)c1ccccc1O.[O-]/C(=N\N=C\c1ccccn1)c1ccccc1O = 5.21
• CCN(CC)Cc1cc2[nH]c3c4ccc(Cl)cc4ncc3c2cc1OC (tested in a mixture with another compound) = 6.34
• c1ccc(N2CC3CSc4c(ccc5ccccc45)C3=N2)cc1 (configuration not stated) = 3.79
• [N-]=[N+]=CC(=O)CCC(=O)N(c1ccccc1)c1ccccc1 = 3.71

----------
The entries below come with measured pEC50 values attached.
System: CEM cells HIV-1 protection, formazan growth assay
Test: NCI AIDS Antiviral Assay
pEC50: −log10 of the molar value.
ENDPOINT NAME: pEC50

* COc1ccc2c(c1)C(c1ccc3ccccc3c1)OC2=O (stereo unspecified) | < 4.33
* C=C[C@H]1[C@@H]2CCC3=CC(=O)CC[C@@H]3C2CC[C@]1(C)C(=O)O (stereo partly specified) | < 3.70
* CCC(C)C(NC(=O)c1ccccc1SC(=O)CCCC[n+]1ccccc1)C(N)=O (stereo unspecified) | < 4.45
* CC(=O)N1C(Nc2ccccc2)CCN1c1ccccc1 (stereo unspecified) | < 3.70
* Cc1[nH]nc(N)c1C#N | < 3.70
* C=CCC1(OCc2ccccc2)C(=O)C(=O)OC1C1COC(C)(C)O1 (stereo unspecified) | < 3.70
* CCOc1ccc(N=O)c(O)c1 | < 3.70
* CC1(C)OC2OC(C(COS(=O)(=O)C(F)(F)F)N=[N+]=[N-])C(OC(=O)c3ccccc3)C2O1 (stereo unspecified) | < 3.70
* CCCc1cc(=O)oc2c3c(cc(OC)c12)O[C@H](C)C(C)C3=O (stereo partly specified) | < 3.70
* O=C(Nc1ccccc1)N(CCCCN(Cc1ccccc1)C(=O)Nc1ccccc1)Cc1ccccc1 | < 3.70
* COc1ccc(OC)c(NC(=O)C(=O)CC(=O)c2sc(-n3nc(-c4ccccc4)cc3-c3ccccc3)nc2C)c1 | < 3.36

----------
System: CEM cells HIV-1 protection, formazan growth assay
Assay: NCI AIDS Antiviral Assay
Conditions: measured here: growth of uninfected CEM cells
pIC50: −log10 of the molar value.
Please use MET whenever pIC50 is not below 5, and NOT MET whenever it is.

* O=C(Cc1ccccc1)NN1C(=O)C(Cl)C1c1ccccc1O (stereo not drawn) | NOT MET
* S=c1nnn(C2CCCN2)[nH]1 (stereo not drawn) | NOT MET
* O=C(NC1CCCCC1)NS(=O)(=O)c1ccc2c(c1)CCC2 | NOT MET
* OC1(c2ccccc2)C2CCN(CC2)C1CN1CCOCC1 (stereo not drawn) | NOT MET
* ClC1=NN=C(c2c[nH]c3ccccc23)CC1NCc1ccccc1 (stereo not drawn) | NOT MET
* CCOC(=O)c1cnn2c(SC)ncnc12 | NOT MET
* COc1c(OC(C)=O)c(OC(C)=O)cc2c1-c1ccc(OC)c(=O)cc1C(NC(C)=O)CC2 (stereo not drawn) | MET
* COc1cc(/C=C/C(=O)c2ccccc2)cc(OC)c1OC | NOT MET
* C#Cc1cc(CN(CC(=O)OC(C)(C)C)CC(=O)OC(C)(C)C)nc(CN(CC(=O)OC(C)(C)C)CC(=O)OC(C)(C)C)c1 | MET
* CCOC(=O)C1(C/C=C\CBr)CCCC1=O (stereo not drawn) | NOT MET
* Cc1cn(C2CC(O)C(COC(=O)CCCCCCCCCCCN=[N+]=[N-])O2)c(=O)[nH]c1=O (stereo not drawn) | NOT MET
* CCN(CC)CC1CN=C(N)O1 (stereo not drawn) | NOT MET
* O=c1[nH]c2nc3ccccc3c(=O)n2nc1Cc1ccccc1 | NOT MET
* CCC1(OC(=O)CNC)C(=O)OCc2c1cc1n(c2=O)Cc2cc3ccccc3nc2-1 (stereo not drawn) | MET
* Cc1ccc2ccc3c(-c4ccccc4)cc(C)nc3c2n1 | MET
* COc1cc2c(cc1OC)C(C(=O)c1cccc(OC)c1OC)C(=O)N(C)CC2 (stereo not drawn) | NOT MET
* NC(=O)C1Cc2cc3c(cc21)OCO3 (stereo not drawn) | NOT MET
* CCN(CC)c1ccc(N=C2C=CC(=O)c3ncccc32)c(C)c1 | NOT MET
* S=c1[nH]c(=S)c2nc(Nc3ccccc3)sc2[nH]1 | NOT MET
* CN(C)Cc1cc(N=Nc2ccc(Cl)cc2)ccc1OC(=O)c1ccccc1 | NOT MET
* Clc1ncccc1SSc1cccnc1Cl | NOT MET
